- METHOD: In vivo pharmacokinetics, oral gavage
- SETTINGS: CD, mouse, in vivo, po, 50 mg/kg
MEASURED ATTRIBUTE: log10 AUC (log10 of the value in ng·h/mL)
Parameter value (number): base-10 log of AUC in ng·h/mL.

Some solved cases for reference:
                               input_smiles  measured_attribute  readout_number
0  CC[C@@]1(O)C(=O)OCc2c1c(N)c1n(c2=O)Cc2c-1nc1ccccc1c2C           log10 AUC            2.61
1  CCc1c2c(nc3ccccc13)-c1c(N)c3c(c(=O)n1C2)COC(=O)[C@]3(O)CC           log10 AUC            3.03
2  CC[C@@]1(O)C(=O)OCc2c1c([N+](=O)[O-])c1n(c2=O)Cc2c-1nc1ccccc1c2C           log10 AUC            3.63
3  CC[C@@]1(O)C(=O)OCc2c1c(N)c1n(c2=O)Cc2cc3c(N)cccc3nc2-1           log10 AUC            3.49
4  CCc1c2c(nc3ccccc13)-c1c(NC=O)c3c(c(=O)n1C2)COC(=O)[C@]3(O)CC           log10 AUC            3.93

Give measured log10 AUC for every item shown.
1. CC[C@@]1(O)C(=O)OCc2c1c([N+](=O)[O-])c1n(c2=O)Cc2c-1nc1ccccc1c2/C=N/OC(C)(C)C
2. CC[C@@]1(O)C(=O)OCc2c1c(N)c1n(c2=O)Cc2cc3ccccc3nc2-1
3. CCc1c2c(nc3ccccc13)-c1c([N+](=O)[O-])c3c(c(=O)n1C2)COC(=O)[C@]3(O)CC

RESULT:
[2.55, 3.21, 3.26]
